- Procedure Summary: Displacement of [3H]IMI from house fly nAChR
- Parameters: species or system Musca domestica
Here, each record is paired with measured Ki data.
Give the value in µM but do not write µM after it.

Which Ki is reported for this molecule? O=[N+]([O-])/N=C1\N(Cc2ccc(Cl)nc2)CCN1CN1CCN(Cc2ccc(Cl)nc2)/C1=N\[N+](=O)[O-]
27

Others:
Param item = O=[N+]([O-])/N=C1/N(CCCCCCCCCCN2CCN(Cc3ccc(Cl)nc3)/C2=N\[N+](=O)[O-])CCN1Cc1ccc(Cl)nc1 ; retrieve measured Ki.
110

====

- Procedure Summary: Displacement of [3H]IMI from Drosophila melanogaster brain nAChR
Quantity Kind: log10(Ki) (log10 of the value in nM)
Record value = log10 of Ki given in nM.

Recorded log10(Ki) for O=[N+]([O-])/N=C1/N(CCCCCCCN2CCN(Cc3ccc(Cl)nc3)/C2=N\[N+](=O)[O-])CCN1Cc1ccc(Cl)nc1 , please?
2.15

Try this molecule next: O=[N+]([O-])/N=C1/N(CCCCCN2CCN(Cc3ccc(Cl)nc3)/C2=N\[N+](=O)[O-])CCN1Cc1ccc(Cl)nc1
3.73

# iterate: O=[N+]([O-])/N=C1/N(Cc2ccc(CN3CCN(Cc4ccc(Cl)nc4)/C3=N\[N+](=O)[O-])cc2)CCN1Cc1ccc(Cl)nc1
3.07

# repeat for O=[N+]([O-])/N=C1/N(CC/C=C\CCN2CCN(Cc3ccc(Cl)nc3)/C2=N\[N+](=O)[O-])CCN1Cc1ccc(Cl)nc1
2.89

Next molecule: O=[N+]([O-])/N=C1/N(CCCCCCCCCN2CCN(Cc3ccc(Cl)nc3)/C2=N\[N+](=O)[O-])CCN1Cc1ccc(Cl)nc1
3.14
